system: MCF7 cells; assay: MTT cell viability assay, MCF7; assay type: cell-based, human; conditions: 48 h, read-out: Cytotoxicity IC50, MCF7
observable: IC50 (µM)
Give just the number in µM; leave the unit off.

compound	target-of-assay	IC50 (µM)
CC1=C(CO)C(=O)OC(C(C)C2CCC3C4CC5OC56C(O)C5ON=C(c7ccc(Br)cc7)C5C(=O)C6(C)C4CCC23C)C1 (stereo not drawn) [W-3b, 4-bromophenyl-2-isoxazoline withaferin A]	MCF7 cells	1.82

Please examine the following record next.
Recorded IC50 (compound CC1=C(CO)C(=O)OC(C(C)C2CCC3C4CC5OC56C(O)C5ON=C(c7ccc(C(F)(F)F)cc7)C5C(=O)C6(C)C4CCC23C)C1 (stereo not drawn) [W-11b] ): 83.3
